Where do the numbers come from? From PubChem BioAssay (NCI).

test system: HCT-116 colon; experiment: NCI-60 one-dose screen, 48 h (100 = growth as untreated, 0 = no growth, -100 = all killed); details: 10 µM unless noted
Compounds without any hit were thinned out: in the full panel of roughly 83,000, 20% have a hit.
Please assign f whenever growth is at or above 70%, and t whenever it is below.

Solved entries:
| compound | assigned_label |
| --- | --- |
| CC(CO)NC1CCCCC1 (stereo unspecified) | f |
| COc1ccc2c(c1)c(-c1nc(-c3c[nH]c4ncccc34)cs1)cn2CCCCN1CCCCC1 | t |
| Clc1cccc(Cl)c1Cl | f |
| CS(=O)(=O)CCN1CC2CCCC(C2)C1 | f |
| COc1ccc(/C(C)=C(\c2ccc(OCCN3CCOCC3)cc2)c2ccc(OC(=O)Cc3ccccc3)cc2)cc1 | f |
| O=C(N/N=C\c1ccc(N(CCCl)CCCl)cc1)c1cccc([N+](=O)[O-])c1 | f |
| O=C(O)C(Cl)(Cl)C(F)(F)F | f |
| COP(=O)(OC)C(O)c1ccc(Cl)cc1 (stereo unspecified) | f |
| COc1ccc(Nc2ccc([N+](=O)[O-])cc2[N+](=O)[O-])cc1CN(CCCl)CCCl | t |
| COC(=O)[C@@H](C)C[C@H](Cc1cn(C)c2ccccc12)NC(=O)c1csc([C@@H](C[C@H](C(C)C)N(C)C(=O)[C@@H](NC(=O)[C@H]2CCCCN2C)C(C)C)OC(C)=O)n1 | t |

As a next step, examine the compound that follows.
Ask: Criterion: growth strictly below 70%. Is it met by "Cn1cc(-c2csc(-c3cn(CCN4CCOCC4)c4ccccc34)n2)c2cccnc21" ?
Reply: f
